biological target: Ubiquitin carboxyl-terminal hydrolase 28 (Homo sapiens) (UniProt Q96RU2); test: Concentration-response biochemical assay confirming initial hits as inhibitors of ubiquitin-specific protease 28 (AID 1645866); conditions: purified USP28, ubiquitin-rhodamine fluorescence, 30 min
Sequence (Q96RU2 whole entry, looked up): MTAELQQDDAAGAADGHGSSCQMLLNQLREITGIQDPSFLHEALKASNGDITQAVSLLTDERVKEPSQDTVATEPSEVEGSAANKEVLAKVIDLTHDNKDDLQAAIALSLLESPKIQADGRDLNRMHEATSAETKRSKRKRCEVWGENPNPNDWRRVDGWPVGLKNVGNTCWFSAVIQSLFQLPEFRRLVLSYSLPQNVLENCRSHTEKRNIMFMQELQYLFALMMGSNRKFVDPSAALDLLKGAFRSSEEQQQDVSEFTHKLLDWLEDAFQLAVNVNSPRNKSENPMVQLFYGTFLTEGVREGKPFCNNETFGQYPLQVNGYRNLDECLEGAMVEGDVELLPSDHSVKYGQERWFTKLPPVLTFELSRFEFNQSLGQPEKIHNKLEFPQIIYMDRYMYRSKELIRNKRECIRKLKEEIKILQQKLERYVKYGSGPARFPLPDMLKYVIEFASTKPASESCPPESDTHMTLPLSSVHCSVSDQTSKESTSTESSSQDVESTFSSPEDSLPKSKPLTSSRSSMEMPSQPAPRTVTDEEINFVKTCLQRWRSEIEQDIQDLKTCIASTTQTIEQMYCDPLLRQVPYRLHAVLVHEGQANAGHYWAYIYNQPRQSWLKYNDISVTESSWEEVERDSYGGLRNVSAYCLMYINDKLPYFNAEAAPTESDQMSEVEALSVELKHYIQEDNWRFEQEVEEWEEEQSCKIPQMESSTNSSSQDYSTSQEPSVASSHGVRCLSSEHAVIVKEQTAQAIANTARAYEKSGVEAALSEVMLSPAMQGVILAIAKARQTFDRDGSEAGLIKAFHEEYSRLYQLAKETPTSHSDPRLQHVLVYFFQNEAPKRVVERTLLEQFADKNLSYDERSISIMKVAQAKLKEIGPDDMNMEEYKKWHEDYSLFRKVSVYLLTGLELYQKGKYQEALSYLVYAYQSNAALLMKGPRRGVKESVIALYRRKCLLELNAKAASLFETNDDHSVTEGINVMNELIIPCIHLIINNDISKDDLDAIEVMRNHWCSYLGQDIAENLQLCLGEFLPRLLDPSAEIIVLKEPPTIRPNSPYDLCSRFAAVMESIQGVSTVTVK
The source made the active and inactive calls.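 Rule for the calls: active = in confirmatory dose-response testing, peak deubiquitinase inhibition of 30% or more; inactive = the rest.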
MEASUREMENT_TYPE: IC50

[
  {
    "COMPOUND": "Cc1ccc(C2c3cccn3CCN2C(=O)Nc2ccccc2)cc1 (stereo unspecified)",
    "VALUE_REPORTED": "> 50 µM (inactive)"
  },
  {
    "COMPOUND": "Cc1ccc2c(c1)c(=O)c(C(=O)c1ccccc1)cn2CC(=O)Nc1ccc2c(c1)OCCO2",
    "VALUE_REPORTED": "4.21 µM"
  },
  {
    "COMPOUND": "CCOc1ccc2c(c1)c(=O)c(C(=O)c1ccccc1)cn2CC(=O)Nc1ccccc1",
    "VALUE_REPORTED": "9.83 µM"
  },
  {
    "COMPOUND": "CSc1cccc(C(=O)Nc2ccc(-c3nc4ccccc4[nH]3)cc2)c1",
    "VALUE_REPORTED": "5.8 µM"
  },
  {
    "COMPOUND": "NC(=O)c1ccc(NC(=O)Cc2cc(-c3ccc(Cl)cc3)on2)cc1",
    "VALUE_REPORTED": "> 50 µM (inactive)"
  },
  {
    "COMPOUND": "CCOc1cc(N2CCOCC2)c(OCC)cc1NC(=O)c1cc(-c2ccncc2)nc2ccccc12",
    "VALUE_REPORTED": "7.24 µM"
  },
  {
    "COMPOUND": "Cc1nnc(-c2nnc(NCc3ccc(Cl)cc3)c3ccccc23)o1",
    "VALUE_REPORTED": "> 50 µM (inactive)"
  },
  {
    "COMPOUND": "COc1ccc(-c2cc(-c3ccc(F)cc3)[nH]c(=O)c2C#N)cc1",
    "VALUE_REPORTED": "21.8 µM"
  },
  {
    "COMPOUND": "Cc1ccc(-n2c(=O)[nH]c3c(C(N)=O)nc(-c4cccnc4)nc32)cc1",
    "VALUE_REPORTED": "6.87 µM"
  },
  {
    "COMPOUND": "COc1cccc(-c2cc(C(=O)Nc3cc(C)n(Cc4ccc(Cl)cc4)n3)no2)c1",
    "VALUE_REPORTED": "40.5 µM"
  },
  {
    "COMPOUND": "Cc1cc(C)nc(-n2nc(C)c3c2NC(=O)CSC3c2ccccc2F)n1 (stereo unspecified)",
    "VALUE_REPORTED": "34.3 µM"
  },
  {
    "COMPOUND": "Cn1cc(NC(=O)Nc2cccc3ccccc23)c2ccccc21",
    "VALUE_REPORTED": "16.5 µM"
  },
  {
    "COMPOUND": "COc1cccc(NC(=O)Nc2ccc3nc4n(c(=O)c3c2)CCCC4)c1",
    "VALUE_REPORTED": "3.13 µM"
  },
  {
    "COMPOUND": "O=C(Cn1c(=O)nc(-c2ccccc2)c2ccccc21)NCc1ccc2c(c1)OCO2",
    "VALUE_REPORTED": "27.9 µM"
  },
  {
    "COMPOUND": "Cc1ccccc1NC(=O)c1cc(S(=O)(=O)N2CCCCCC2)ccc1Cl",
    "VALUE_REPORTED": "25.6 µM"
  },
  {
    "COMPOUND": "COc1ccc(NC(=O)c2sc(N3CCOCC3)nc2-c2ccccc2)c(OC)c1",
    "VALUE_REPORTED": "17 µM"
  },
  {
    "COMPOUND": "Cc1nc(CN2CCn3c(Cn4cccn4)cnc3C2C)cs1 (stereo unspecified)",
    "VALUE_REPORTED": "> 50 µM (inactive)"
  },
  {
    "COMPOUND": "Cc1nc2ccccn2c1C1(O)C(=O)Nc2c(Cl)cc(Cl)cc21 (stereo unspecified)",
    "VALUE_REPORTED": "> 50 µM (inactive)"
  },
  {
    "COMPOUND": "Cn1c(=O)/c(=C/c2ccccc2)[nH]c(=O)/c1=C/c1ccccc1",
    "VALUE_REPORTED": "10.2 µM"
  },
  {
    "COMPOUND": "Cc1cc(=O)n(C)c2c(O)c3c(cc12)c(C)cc(=O)n3C",
    "VALUE_REPORTED": "43.9 µM"
  },
  {
    "COMPOUND": "O=S(=O)(c1ccc2c(c1)OCCO2)N(Cc1ccccc1)Cc1nnc(-c2ccccc2)o1",
    "VALUE_REPORTED": "> 50 µM (inactive)"
  }
]

* * *

molecular target: Ubiquitin carboxyl-terminal hydrolase 28 (Homo sapiens) (UniProt Q96RU2); test: Concentration-response biochemical assay confirming initial hits as inhibitors of ubiquitin-specific protease 28 (AID 1645866); conditions: purified USP28, ubiquitin-rhodamine fluorescence, 30 min
Active and inactive are the calls of the source.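 Rule for the calls: active = in confirmatory dose-response testing, peak deubiquitinase inhibition of 30% or more; inactive = the rest.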
Some compounds, each annotated with its measured IC50.
MEASUREMENT_TYPE: IC50

[
  {
    "COMPOUND": "Cc1ccccc1Cn1cc(SCC(=O)Nc2ccc3c(c2)OCCO3)c2ccccc21",
    "VALUE_REPORTED": "4.81 µM"
  },
  {
    "COMPOUND": "O=C(c1cscn1)N1CCC2(CC1)CC1(CO2)Nc2ccccc2-n2cccc21 (stereo unspecified)",
    "VALUE_REPORTED": "> 50 µM (inactive)"
  },
  {
    "COMPOUND": "O=C(CSc1ccc(-c2cccc([N+](=O)[O-])c2)nn1)Nc1cccc(F)c1",
    "VALUE_REPORTED": "2.23 µM"
  },
  {
    "COMPOUND": "Cc1ccccc1NC(=O)Cn1c(N2CCOCC2)nc2cc(C)n(C)c2c1=O",
    "VALUE_REPORTED": "20.1 µM"
  },
  {
    "COMPOUND": "Clc1cc2nc(N3CCN(c4ccccn4)CC3)c3nncn3c2cc1Cl",
    "VALUE_REPORTED": "2.3 µM"
  },
  {
    "COMPOUND": "CCOc1ccc2[nH]c3c(=O)n(CCc4ccc(OC)cc4)cnc3c2c1",
    "VALUE_REPORTED": "5.81 µM"
  },
  {
    "COMPOUND": "COc1ccc(OC)c(NC(=O)c2cc(Cl)ccc2OC)c1",
    "VALUE_REPORTED": "1.66 µM"
  },
  {
    "COMPOUND": "N#C/C(=C\\c1ccc(-c2cc(Cl)ccc2Cl)o1)c1nnc2n1CCCCC2",
    "VALUE_REPORTED": "> 50 µM (inactive)"
  },
  {
    "COMPOUND": "CCC(C)Oc1cccc(C(=O)Nc2ccc(CN3CCOCC3)cc2)c1 (stereo unspecified)",
    "VALUE_REPORTED": "1.74 µM"
  },
  {
    "COMPOUND": "COC(=O)c1sc2ccccc2c1NC(=O)c1ccc(Br)s1",
    "VALUE_REPORTED": "15.8 µM"
  },
  {
    "COMPOUND": "CC(=O)c1ccc(NC(=O)c2ccc(N3CCCCS3(=O)=O)cc2Cl)cc1",
    "VALUE_REPORTED": "26.6 µM"
  }
]

* * *

target: Ubiquitin carboxyl-terminal hydrolase 28 (Homo sapiens) (UniProt Q96RU2); assay: Concentration-response biochemical assay confirming initial hits as inhibitors of ubiquitin-specific protease 28 (AID 1645866); details: purified USP28, ubiquitin-rhodamine fluorescence, 30 min
Activity calls are given as the source filed them.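 The calls were made as follows: active = in confirmatory dose-response testing, peak deubiquitinase inhibition of 30% or more; inactive = the rest.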
Labels: active, inactive

[
  {
    "MOLECULE_SMILES": "Cc1ccc2nc(N3CCc4ccccc4C3)c3nncn3c2c1",
    "LABEL": "inactive"
  },
  {
    "MOLECULE_SMILES": "COc1c2nc3ccccc3oc-2cc(=O)c1OC",
    "LABEL": "inactive"
  },
  {
    "MOLECULE_SMILES": "COc1ccc(-c2nc(SCC(=O)Nc3ccc(C(C)=O)cc3)n[nH]2)cc1",
    "LABEL": "active"
  },
  {
    "MOLECULE_SMILES": "Cn1ncc2c(=O)n(Cc3cccc(Cl)c3)cnc21",
    "LABEL": "active"
  },
  {
    "MOLECULE_SMILES": "COc1ccc(NC(=O)c2cc(-c3cccnc3)n[nH]2)cc1Cl",
    "LABEL": "active"
  },
  {
    "MOLECULE_SMILES": "C/C=C1/C2=CCCN3C(=O)O[C@H]([C@H]1O)[C@H]23",
    "LABEL": "active"
  }
]

* * *

molecular target: Ubiquitin carboxyl-terminal hydrolase 28 (Homo sapiens); experiment: Concentration-response biochemical assay confirming initial hits as inhibitors of ubiquitin-specific protease 28 (AID 1645866); settings: purified USP28, ubiquitin-rhodamine fluorescence, 30 min
Active and inactive are the calls of the source.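 The calls were made as follows: active = in confirmatory dose-response testing, peak deubiquitinase inhibition of 30% or more; inactive = the rest.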
Outcome codes: active, inactive

[
  {
    "COMPOUND": "CCOc1ccccc1C(=O)NCC(=O)OC(C(=O)c1c[nH]c2ccccc12)c1ccccc1 (stereo not drawn)",
    "EXPERIMENTAL_SYSTEM": "Ubiquitin carboxyl-terminal hydrolase 28 (Homo sapiens)",
    "LABEL": "inactive"
  },
  {
    "COMPOUND": "COc1ccc2cc3c(nc2c1)OC(=O)N(CCc1cccc(F)c1)C3",
    "EXPERIMENTAL_SYSTEM": "Ubiquitin carboxyl-terminal hydrolase 28 (Homo sapiens)",
    "LABEL": "active"
  },
  {
    "COMPOUND": "COc1ccc(-c2nc(C)c(C(=O)NCc3ccc(S(N)(=O)=O)cc3)s2)cc1",
    "EXPERIMENTAL_SYSTEM": "Ubiquitin carboxyl-terminal hydrolase 28 (Homo sapiens)",
    "LABEL": "inactive"
  },
  {
    "COMPOUND": "COc1cc(C)c2c(=O)c3c(oc2c1)C(=O)c1c(O)c(OC)cc(O)c1C3=O",
    "EXPERIMENTAL_SYSTEM": "Ubiquitin carboxyl-terminal hydrolase 28 (Homo sapiens)",
    "LABEL": "active"
  },
  {
    "COMPOUND": "COc1ccc(CNC(=O)CN2C(=O)CC(c3ccccc3)=Nc3ccccc32)cc1",
    "EXPERIMENTAL_SYSTEM": "Ubiquitin carboxyl-terminal hydrolase 28 (Homo sapiens)",
    "LABEL": "active"
  },
  {
    "COMPOUND": "O=C1C[C@@H]2O[C@H](CNC(=O)[C@@H]3CN(CCN3C(=O)C3CCOCC3)C(=O)[C@@H]3C[C@@H](CN3Cc3ccc(F)c(F)c3)N1)[C@@H](O)[C@H]2O",
    "EXPERIMENTAL_SYSTEM": "Ubiquitin carboxyl-terminal hydrolase 28 (Homo sapiens)",
    "LABEL": "inactive"
  },
  {
    "COMPOUND": "CCOc1ccccc1-c1nc(-c2nnn(Cc3ccccc3)c2C)no1",
    "EXPERIMENTAL_SYSTEM": "Ubiquitin carboxyl-terminal hydrolase 28 (Homo sapiens)",
    "LABEL": "inactive"
  },
  {
    "COMPOUND": "Cc1ccc(Cn2c(=O)n(CCC(=O)NCCc3ccccc3)c(=O)c3ccccc32)cc1",
    "EXPERIMENTAL_SYSTEM": "Ubiquitin carboxyl-terminal hydrolase 28 (Homo sapiens)",
    "LABEL": "active"
  },
  {
    "COMPOUND": "Cc1noc(-c2cccc(=O)n2CC(=O)Nc2ccc(C)c(C)c2)n1",
    "EXPERIMENTAL_SYSTEM": "Ubiquitin carboxyl-terminal hydrolase 28 (Homo sapiens)",
    "LABEL": "active"
  },
  {
    "COMPOUND": "O=C(NC1CC1)c1ccnn1-c1ccc2ccc(-c3ccncc3)cn12",
    "EXPERIMENTAL_SYSTEM": "Ubiquitin carboxyl-terminal hydrolase 28 (Homo sapiens)",
    "LABEL": "inactive"
  },
  {
    "COMPOUND": "Cc1nn(-c2cccc(F)c2)c2c1C(C(=O)c1ccc(Cl)s1)CC(=O)N2 (stereo not drawn)",
    "EXPERIMENTAL_SYSTEM": "Ubiquitin carboxyl-terminal hydrolase 28 (Homo sapiens)",
    "LABEL": "active"
  },
  {
    "COMPOUND": "CCc1c(Cl)c(O)c(Cl)c(O)c1C(=O)O[C@H]1C(C)O[C@@H](OC/C2=C\\C=C\\CC(O)/C(C)=C/C(CC)C(O[C@@H]3OC(C)(C)[C@H](O)C(OC(=O)C(C)C)[C@@H]3O)/C(C)=C/C(C)=C/CC(C(C)O)OC2=O)[C@@H](OC)C1O (stereo partly drawn)",
    "EXPERIMENTAL_SYSTEM": "Ubiquitin carboxyl-terminal hydrolase 28 (Homo sapiens)",
    "LABEL": "inactive"
  },
  {
    "COMPOUND": "CN1CCN(c2ccc3nc(-c4ccccc4)c(-c4ccccc4)nc3c2)CC1",
    "EXPERIMENTAL_SYSTEM": "Ubiquitin carboxyl-terminal hydrolase 28 (Homo sapiens)",
    "LABEL": "inactive"
  },
  {
    "COMPOUND": "COc1ccc(CCNC(=O)CCCCn2c(=O)c3ccccc3n(Cc3cccc(Cl)c3)c2=O)cc1OC",
    "EXPERIMENTAL_SYSTEM": "Ubiquitin carboxyl-terminal hydrolase 28 (Homo sapiens)",
    "LABEL": "active"
  },
  {
    "COMPOUND": "O=C(c1ccc2cc[nH]c2c1)N1CCC(Nc2cccnc2)C1 (stereo not drawn)",
    "EXPERIMENTAL_SYSTEM": "Ubiquitin carboxyl-terminal hydrolase 28 (Homo sapiens)",
    "LABEL": "inactive"
  },
  {
    "COMPOUND": "O=C(CCc1nnc2n(Cc3ccc(F)cc3)c(=O)c3ccccc3n12)N1CCN(c2ccccn2)CC1",
    "EXPERIMENTAL_SYSTEM": "Ubiquitin carboxyl-terminal hydrolase 28 (Homo sapiens)",
    "LABEL": "inactive"
  },
  {
    "COMPOUND": "COc1ccc(OC)c2c(C)cc(N3CCN(S(=O)(=O)c4ccc5c(c4)CCCN5S(C)(=O)=O)CC3)nc12",
    "EXPERIMENTAL_SYSTEM": "Ubiquitin carboxyl-terminal hydrolase 28 (Homo sapiens)",
    "LABEL": "active"
  },
  {
    "COMPOUND": "O=C(Nc1cc(F)c2nc(N3CCOCC3)ccc2c1)c1ccc(Br)o1",
    "EXPERIMENTAL_SYSTEM": "Ubiquitin carboxyl-terminal hydrolase 28 (Homo sapiens)",
    "LABEL": "active"
  }
]

Recorded values, source PubChem BioAssay AID1645866.
